Experiment: Determination of toxicity (lethal action on the mouse after intraperitoneal application)
Format: in vivo
Conditions: in vivo, ip; mouse; Table II
assayEndpoint: LD50 at 336 h (mg/kg)
Your answer should be a plain number; it is taken to be in mg/kg.

Would you please look over these solved cases?
C#CC(CC)(CC)N(CCCC(=O)O)C(=O)c1ccc(Cl)cc1    200
CCC(C)(C)N(CCCC(=O)O)C(=O)c1ccc(Cl)cc1Cl    190

# ---- query compound ----
Param item = CC(C)(C)N(CCCC(=O)O)C(=O)c1ccc(Cl)cc1 ; retrieve measured LD50 at 336 h.
850

====

compounds and their reported LD50 at 336 h
Test: Determination of toxicity (lethal action on the mouse after intraperitoneal application)
Type: in vivo
Details: in vivo, ip; mouse i.p.; Table V
# output: bare number, implied unit mg/kg

CC(C)C(=O)N(CCCCCC(=O)O)c1ccccc1-c1ccccc1    260

In the following, a different compound is considered.
I would be grateful if you could share the reported LD50 at 336 h for O=C(O)CCCCN(C(=O)c1ccc(Cl)cc1)c1ccccc1-c1ccccc1 .
140
